Source listed as the supplement of paper PMC7877785.

assay text: self-splicing fitness, log relative to wild type (ln ratio); higher = more splicing; Tetrahymena group I intron in knt gene, E. coli kanamycin selection, DiMSum; sequences stand for … in CUCUCU…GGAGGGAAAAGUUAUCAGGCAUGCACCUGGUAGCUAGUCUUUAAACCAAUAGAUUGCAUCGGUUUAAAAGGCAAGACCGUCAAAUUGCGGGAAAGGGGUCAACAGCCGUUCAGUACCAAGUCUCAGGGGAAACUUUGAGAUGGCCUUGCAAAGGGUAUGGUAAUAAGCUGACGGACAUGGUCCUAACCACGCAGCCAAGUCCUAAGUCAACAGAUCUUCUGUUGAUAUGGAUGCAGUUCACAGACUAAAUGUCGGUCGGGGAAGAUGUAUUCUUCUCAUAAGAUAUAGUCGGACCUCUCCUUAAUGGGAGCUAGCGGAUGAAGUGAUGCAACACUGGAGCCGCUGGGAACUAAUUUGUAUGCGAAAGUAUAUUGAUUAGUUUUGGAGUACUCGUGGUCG;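 also: selection with 25 µg/mL kanamycin versus none on LB agar overnight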
assay context: 37 °C
Mark not met for self-splicing fitness (ln) values under -2, and met for everything at or above.

Is it the case that UGCUAGCAAUAUUACGGUUA has self-splicing fitness (ln) reaching or exceeding -2?
met

Has UCCGAGCAAUAUUACGGUCC a recorded self-splicing fitness (ln) greater than or equal to -2?
not met

Evaluate GCCCAGCAAUAUUACGCCUA : self-splicing fitness (ln) at minimum -2?
met

Item AACUAGCAAUAUUACGGUAA with self-splicing fitness (ln) of -2 or above?
met

Is self-splicing fitness (ln) for GAUCAGCAAUAUUACGUUUA at or above -2?
met

---

assay text: self-splicing fitness, log relative to wild type (ln ratio); higher = more splicing; Tetrahymena group I intron in knt gene, E. coli kanamycin selection, DiMSum; sequences stand for … in CUCUCU…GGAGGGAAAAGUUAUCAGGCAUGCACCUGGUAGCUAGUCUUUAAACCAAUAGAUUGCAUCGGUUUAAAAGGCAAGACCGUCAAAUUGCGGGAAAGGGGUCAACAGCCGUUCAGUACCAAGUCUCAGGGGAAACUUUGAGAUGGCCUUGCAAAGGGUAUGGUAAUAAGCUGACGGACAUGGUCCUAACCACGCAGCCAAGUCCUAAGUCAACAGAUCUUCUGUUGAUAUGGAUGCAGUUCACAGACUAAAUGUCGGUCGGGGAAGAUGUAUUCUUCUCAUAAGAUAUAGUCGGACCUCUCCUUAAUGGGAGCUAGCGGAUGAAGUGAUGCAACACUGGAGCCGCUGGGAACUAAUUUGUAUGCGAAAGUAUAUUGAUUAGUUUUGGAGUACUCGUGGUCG
assay context: 37 °C
Output schema: class label derived from self-splicing fitness (ln). Mapping: low range: < -2; mid range: ≥ -2 and < -0.7; high range: ≥ -0.7

Observe how each entry below is paired with its result.
Place this sequence in its band: AGACAGCAAUAUUACGUAAG
high range

Textbook exercise: identify the category of the sequence given here, CGAUAGCAAUAUUACGAGGA , according to its measured value.
low range

Determine which band this sequence sits in: UGGCAGCAAUAUUACGGCUA
high range

Lab note: sort CAGCAGCAAUAUUACGUUCG into the matching self-splicing fitness (ln) band.
high range

Category of CAAGAGCAAUAUUACGUUGC :
low range

Band assignment needed for UGAAAGCAAUAUUACGUCCG please.
high range

Further cases:
Could you tell me which band UGCAAGCAAUAUUACGGUGU belongs to?
low range

Which self-splicing fitness (ln) category applies to CGGGAGCAAUAUUACGAACG here?
low range

State the band of AUCAAGCAAUAUUACGUGAG
high range

Which bin should I file GAGCAGCAAUAUUACGUAGC under?
mid range

Sort CACAAGCAAUAUUACGCCGU into one of the categories.
low range

Band for GAUAAGCAAUAUUACGCGGC ?
mid range

---

assay text: self-splicing fitness, log relative to wild type (ln ratio); higher = more splicing; Tetrahymena group I intron in knt gene, E. coli kanamycin selection, DiMSum; sequences stand for … in CUCUCU…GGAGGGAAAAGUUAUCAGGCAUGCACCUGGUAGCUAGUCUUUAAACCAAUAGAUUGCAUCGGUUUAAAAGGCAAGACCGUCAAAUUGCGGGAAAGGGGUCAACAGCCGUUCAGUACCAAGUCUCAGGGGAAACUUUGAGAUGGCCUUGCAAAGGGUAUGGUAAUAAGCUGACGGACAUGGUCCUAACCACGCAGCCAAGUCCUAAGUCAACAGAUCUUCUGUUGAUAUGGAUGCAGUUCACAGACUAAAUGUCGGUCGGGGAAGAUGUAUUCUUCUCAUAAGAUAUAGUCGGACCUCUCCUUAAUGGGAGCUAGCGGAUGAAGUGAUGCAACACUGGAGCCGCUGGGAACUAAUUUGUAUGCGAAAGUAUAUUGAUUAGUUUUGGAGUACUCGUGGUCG
assay context: 37 °C
I'd be grateful if you could share measured self-splicing fitness (ln) for these entries.
Answers are plain numbers.

Your task in this section: give self-splicing fitness (ln) for each listed record.
1. AAUCAGCAAUAUUACGCGCC
2. AUGAAGCAAUAUUACGCGCC
3. UGCUAGCAAUAUUACGCACC
4. CAAGAGCAAUAUUACGUAAC
5. CCCCAGCAAUAUUACGGAAC
6. GAUUAGCAAUAUUACGGUCU

1. -0.532
2. -0.127
3. -0.242
4. -2.94
5. -3.1
6. -2.07

State recorded self-splicing fitness (ln) for all listed sequences.
1. GAUGAGCAAUAUUACGUCGA
2. ACUGAGCAAUAUUACGUUGA

1. -2.68
2. -2.48

---

assay text: self-splicing fitness, log relative to wild type (ln ratio); higher = more splicing; Tetrahymena group I intron in knt gene, E. coli kanamycin selection, DiMSum; sequences stand for … in CUCUCU…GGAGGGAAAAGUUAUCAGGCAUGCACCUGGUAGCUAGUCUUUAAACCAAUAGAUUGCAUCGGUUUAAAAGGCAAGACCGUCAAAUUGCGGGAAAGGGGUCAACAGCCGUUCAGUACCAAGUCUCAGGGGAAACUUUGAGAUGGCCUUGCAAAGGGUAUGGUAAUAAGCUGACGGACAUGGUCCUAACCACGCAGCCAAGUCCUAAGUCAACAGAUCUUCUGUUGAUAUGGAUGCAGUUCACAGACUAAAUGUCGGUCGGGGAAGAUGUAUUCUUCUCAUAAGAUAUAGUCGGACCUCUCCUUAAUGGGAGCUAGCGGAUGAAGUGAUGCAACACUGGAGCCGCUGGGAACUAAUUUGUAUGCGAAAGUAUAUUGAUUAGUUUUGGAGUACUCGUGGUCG
assay context: 37 °C
Where self-splicing fitness (ln) equals or exceeds -0.5, the correct label is YES; where it does not, the label is NO.

Worked cases, answers included:
Given GAGUAGCAAUAUUACGGCAA , state whether its self-splicing fitness (ln) is at least -0.5.
NO

Determine whether this sequence has self-splicing fitness (ln) no lower than -0.5: UGCCAGCAAUAUUACGCGCU
NO

// inclusive: self-splicing fitness (ln) at least -0.5? input: UGGGAGCAAUAUUACGACAA
NO

Next:
Could you verify whether the entry GGUCAGCAAUAUUACGUUGA shows self-splicing fitness (ln) of no less than -0.5?
NO

Please tell me: is the sequence UUGUAGCAAUAUUACGAUCA at or over -0.5 in terms of self-splicing fitness (ln)?
YES

Kindly determine if self-splicing fitness (ln) recorded for GACUAGCAAUAUUACGCUAG is above or exactly -0.5.
NO

---

assay text: self-splicing fitness, log relative to wild type (ln ratio); higher = more splicing; Tetrahymena group I intron in knt gene, E. coli kanamycin selection, DiMSum; sequences stand for … in CUCUCU…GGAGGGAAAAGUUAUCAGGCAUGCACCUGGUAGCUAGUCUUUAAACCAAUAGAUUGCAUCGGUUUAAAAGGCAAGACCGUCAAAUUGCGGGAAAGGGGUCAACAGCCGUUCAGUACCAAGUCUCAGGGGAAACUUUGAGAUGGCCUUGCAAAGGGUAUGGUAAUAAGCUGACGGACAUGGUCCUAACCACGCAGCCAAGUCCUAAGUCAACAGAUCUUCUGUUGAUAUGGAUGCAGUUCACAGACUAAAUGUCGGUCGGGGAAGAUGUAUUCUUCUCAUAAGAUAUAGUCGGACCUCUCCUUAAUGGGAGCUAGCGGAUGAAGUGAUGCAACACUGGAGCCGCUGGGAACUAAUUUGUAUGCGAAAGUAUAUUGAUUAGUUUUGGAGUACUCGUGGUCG
assay context: 37 °C
Consider the following sequences; for each one, report its self-splicing fitness (ln).
Give bare numbers.

Study these solved cases before continuing.
Returns the measured self-splicing fitness (ln) for the input sequence. Input: UUGAAGCAAUAUUACGUACA
0.767

// query self-splicing fitness (ln) value for entry GUAAAGCAAUAUUACGUUAG
-0.896

# self-splicing fitness (ln) lookup, item ACAUAGCAAUAUUACGAGGG
-3.05

The following sequences each have a reported value; give each one's self-splicing fitness (ln).
1. UCCCAGCAAUAUUACGAUGA
2. CUCGAGCAAUAUUACGUCCU
3. GUCGAGCAAUAUUACGAUAC
4. UGGUAGCAAUAUUACGACUA

1. 0.23
2. -2.55
3. -0.381
4. -0.296

Required: self-splicing fitness (ln), one value per sequence below.
1. CAUAAGCAAUAUUACGUGAU
2. UCUGAGCAAUAUUACGCAUA
3. UCAUAGCAAUAUUACGCGAA
4. CAGGAGCAAUAUUACGGCCA

1: -2.41; 2: -1.19; 3: -1.51; 4: 0.122

Look at each sequence and report its self-splicing fitness (ln).
1. CCCCAGCAAUAUUACGAUAC
2. UACUAGCAAUAUUACGCAGG
3. UUAAAGCAAUAUUACGGAUU
4. GUCUAGCAAUAUUACGUUGG
5. UGUUAGCAAUAUUACGACGU

-2.85
-1.49
-1.74
-1.86
-1.37

# per-item lookup of self-splicing fitness (ln); items listed below
1. UAGCAGCAAUAUUACGCUCA
2. ACGUAGCAAUAUUACGCGAG
3. AAGGAGCAAUAUUACGUAGC
4. UAAUAGCAAUAUUACGAAGC
5. CCCUAGCAAUAUUACGACAG
6. AGAUAGCAAUAUUACGAUCG
7. AGCAAGCAAUAUUACGUGAU

[0.307, -0.232, -2.18, -1.83, -3.3, 0.0462, -1.32]
